FYI, the data here is from PubChem BioAssay AID651670.

# STUDY_TARGET: Fatty acid synthase (Homo sapiens) (UniProt P49327)
# Sequence (P49327 whole entry, looked up): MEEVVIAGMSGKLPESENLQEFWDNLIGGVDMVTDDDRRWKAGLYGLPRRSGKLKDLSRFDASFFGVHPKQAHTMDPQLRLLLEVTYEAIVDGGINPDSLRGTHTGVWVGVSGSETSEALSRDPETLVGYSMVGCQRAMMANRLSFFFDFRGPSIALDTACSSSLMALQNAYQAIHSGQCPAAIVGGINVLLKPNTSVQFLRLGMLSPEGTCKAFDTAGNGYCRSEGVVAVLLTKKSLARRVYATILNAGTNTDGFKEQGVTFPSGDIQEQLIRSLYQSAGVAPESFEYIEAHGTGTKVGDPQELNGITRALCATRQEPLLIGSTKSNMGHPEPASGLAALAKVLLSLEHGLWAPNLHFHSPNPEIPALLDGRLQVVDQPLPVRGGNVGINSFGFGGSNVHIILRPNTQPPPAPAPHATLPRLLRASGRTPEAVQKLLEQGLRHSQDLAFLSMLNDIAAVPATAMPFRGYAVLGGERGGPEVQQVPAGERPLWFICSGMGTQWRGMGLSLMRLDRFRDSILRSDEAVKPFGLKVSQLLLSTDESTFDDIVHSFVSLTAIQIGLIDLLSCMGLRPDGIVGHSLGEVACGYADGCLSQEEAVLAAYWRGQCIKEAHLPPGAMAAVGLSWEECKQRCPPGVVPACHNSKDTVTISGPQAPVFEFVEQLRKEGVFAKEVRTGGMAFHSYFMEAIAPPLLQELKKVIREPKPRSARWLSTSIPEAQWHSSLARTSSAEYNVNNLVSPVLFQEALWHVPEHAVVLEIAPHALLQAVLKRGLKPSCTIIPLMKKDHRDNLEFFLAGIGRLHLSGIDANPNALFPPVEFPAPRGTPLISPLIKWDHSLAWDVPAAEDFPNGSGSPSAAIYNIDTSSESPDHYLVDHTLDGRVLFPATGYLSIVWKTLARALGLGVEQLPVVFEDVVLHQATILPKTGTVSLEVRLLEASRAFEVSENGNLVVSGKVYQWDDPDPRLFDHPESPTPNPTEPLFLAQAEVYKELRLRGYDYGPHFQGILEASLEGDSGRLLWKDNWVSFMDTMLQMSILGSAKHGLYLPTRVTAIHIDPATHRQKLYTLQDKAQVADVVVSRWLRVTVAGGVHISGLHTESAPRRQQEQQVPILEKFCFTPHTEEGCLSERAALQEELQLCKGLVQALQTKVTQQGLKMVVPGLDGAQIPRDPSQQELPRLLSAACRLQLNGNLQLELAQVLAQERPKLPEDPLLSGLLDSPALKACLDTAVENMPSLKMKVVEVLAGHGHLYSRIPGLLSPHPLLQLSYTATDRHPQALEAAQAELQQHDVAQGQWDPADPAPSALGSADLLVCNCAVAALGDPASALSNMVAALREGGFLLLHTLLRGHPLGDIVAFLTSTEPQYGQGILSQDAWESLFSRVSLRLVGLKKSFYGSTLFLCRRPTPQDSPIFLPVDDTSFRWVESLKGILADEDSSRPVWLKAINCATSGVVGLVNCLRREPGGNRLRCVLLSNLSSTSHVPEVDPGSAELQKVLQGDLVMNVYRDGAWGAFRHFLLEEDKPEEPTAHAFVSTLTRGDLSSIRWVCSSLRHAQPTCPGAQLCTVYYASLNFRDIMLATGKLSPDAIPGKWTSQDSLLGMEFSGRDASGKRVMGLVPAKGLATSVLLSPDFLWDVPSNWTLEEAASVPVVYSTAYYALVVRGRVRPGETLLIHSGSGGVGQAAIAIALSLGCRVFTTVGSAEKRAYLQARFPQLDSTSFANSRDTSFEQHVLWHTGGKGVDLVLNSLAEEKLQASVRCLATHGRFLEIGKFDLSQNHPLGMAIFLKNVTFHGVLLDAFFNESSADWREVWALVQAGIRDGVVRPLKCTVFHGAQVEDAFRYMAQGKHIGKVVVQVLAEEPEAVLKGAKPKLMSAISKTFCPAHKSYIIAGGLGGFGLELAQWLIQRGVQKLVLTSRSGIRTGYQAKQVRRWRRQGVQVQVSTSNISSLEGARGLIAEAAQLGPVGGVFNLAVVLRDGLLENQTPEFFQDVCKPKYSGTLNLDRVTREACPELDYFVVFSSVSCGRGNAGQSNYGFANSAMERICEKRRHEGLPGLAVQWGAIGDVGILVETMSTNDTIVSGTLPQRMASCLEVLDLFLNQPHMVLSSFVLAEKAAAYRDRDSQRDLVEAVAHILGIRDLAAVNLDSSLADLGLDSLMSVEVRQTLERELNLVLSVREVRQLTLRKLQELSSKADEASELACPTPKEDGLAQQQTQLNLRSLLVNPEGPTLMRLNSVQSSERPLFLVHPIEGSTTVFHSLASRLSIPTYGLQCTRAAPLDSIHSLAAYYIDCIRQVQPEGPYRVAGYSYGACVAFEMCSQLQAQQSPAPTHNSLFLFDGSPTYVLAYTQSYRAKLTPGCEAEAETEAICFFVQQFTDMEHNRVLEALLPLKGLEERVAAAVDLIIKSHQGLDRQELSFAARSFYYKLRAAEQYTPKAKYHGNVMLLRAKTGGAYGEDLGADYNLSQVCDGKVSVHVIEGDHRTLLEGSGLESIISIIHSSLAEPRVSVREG
# MEASUREMENT_NOTES: inhibition of human FAS-TE enzyme activity – biochemical, endpoint fluorescence intensity, analogs, SAR follow-up (AID 651670)
# STATED_CONDITIONS: recombinant FAS-TE, OMFH fluorogenic substrate
Activity calls are given as the source filed them.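 The calls were made as follows: active = IC50 at or below 20 µM; inactive = the rest.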
Outcome codes: 1 for active, -1 for inactive

SMILES_ENTRY	STUDY_TARGET	LABEL_VALUE
O=C(Nc1nc(-c2ccc(S(=O)(=O)N3CCOCC3)cc2)cs1)c1cccs1	Fatty acid synthase (Homo sapiens) (UniProt P49327)	-1
CC(=O)Nc1nc(-c2ccc(S(=O)(=O)N3CCOCC3)cc2)cs1	Fatty acid synthase (Homo sapiens) (UniProt P49327)	1
Cn1c(SCC(=O)Nc2ncc(C(F)(F)F)cc2Cl)nnc1-c1ccc(F)cc1	Fatty acid synthase (Homo sapiens) (UniProt P49327)	1
COc1ccc(-c2nnc(SCC(=O)Nc3ncc(C(F)(F)F)cc3Cl)n2C)cc1	Fatty acid synthase (Homo sapiens) (UniProt P49327)	1
Cc1ccc(NC(=O)Cc2nc(-c3ccc(S(=O)(=O)N4CCOCC4)cc3)cs2)cc1	Fatty acid synthase (Homo sapiens) (UniProt P49327)	-1
O=S(=O)(c1ccc(-c2csc(Cc3ccccc3)n2)cc1)N1CCOCC1	Fatty acid synthase (Homo sapiens) (UniProt P49327)	1
CN(Cc1cccc(F)c1)C(=O)Cc1ccc(S(=O)(=O)N2CCOCC2)s1	Fatty acid synthase (Homo sapiens) (UniProt P49327)	-1
CCCCn1c(SCC(=O)Nc2ncc(C(F)(F)F)cc2Cl)nnc1-c1ccc(OC)cc1	Fatty acid synthase (Homo sapiens) (UniProt P49327)	1
Cc1ccccc1NC(=O)CSc1nnc(-c2ccc(Cl)cc2)n1C	Fatty acid synthase (Homo sapiens) (UniProt P49327)	-1
CCn1c(SCC(=O)Nc2ncc(C(F)(F)F)cc2Cl)nnc1-c1ccncc1	Fatty acid synthase (Homo sapiens) (UniProt P49327)	-1
CCc1ccc(CN(C)C(=O)Cc2ccc(S(=O)(=O)N3CCCC3)s2)cc1	Fatty acid synthase (Homo sapiens) (UniProt P49327)	1
COc1ccc(CN(C)C(=O)Cc2ccc(S(=O)(=O)N3CCOCC3)s2)cc1OC	Fatty acid synthase (Homo sapiens) (UniProt P49327)	-1
Cn1c(Cc2ccccc2)nnc1SCC(=O)Nc1ncc(C(F)(F)F)cc1Cl	Fatty acid synthase (Homo sapiens) (UniProt P49327)	-1
CCCn1c(SCC(=O)Nc2ncc(C(F)(F)F)cc2Cl)nnc1-c1ccncc1	Fatty acid synthase (Homo sapiens) (UniProt P49327)	-1
O=S(=O)(c1ccc(-c2csc(N3CCCC3)n2)cc1)N1CCOCC1	Fatty acid synthase (Homo sapiens) (UniProt P49327)	1
Cn1c(SCC(=O)Nc2cccc(Cl)c2)nnc1-c1ccc(Cl)cc1	Fatty acid synthase (Homo sapiens) (UniProt P49327)	-1
Cn1c(SCC(=O)Nc2ccccc2)nnc1-c1ccc(Cl)cc1	Fatty acid synthase (Homo sapiens) (UniProt P49327)	-1
Cc1nnc(SCC(=O)Nc2ncc(C(F)(F)F)cc2Cl)n1-c1ccccc1	Fatty acid synthase (Homo sapiens) (UniProt P49327)	-1
O=C(Nc1nc(-c2ccc(S(=O)(=O)N3CCOCC3)cc2)cs1)c1ccco1	Fatty acid synthase (Homo sapiens) (UniProt P49327)	-1
